FYI, the data here is from patent US7790751B2.

Exercise: for every item that follows, state its recorded Ki.
Where a name gives a salt, the structure may show the parent alone.

Lookup: What value of Ki on human cloned 5-HT6 receptors (Homo sapiens, UniProt P50406) does CC(C)N1CCC(Oc2ccc3[nH]nc(S(=O)(=O)c4cccc5ccccc45)c3c2)CC1 [Example 22, Hydrochloride] have?
Found: 0.01 to 10 nM

Lookup: What value of Ki on human cloned 5-HT6 receptors (Homo sapiens, UniProt P50406) does O=S(=O)(c1cccc2ccccc12)c1n[nH]c2c(NC3CCNCC3)cccc12 [Example 36, Dihydrochloride] have?
Found: 26 to 35 nM

Lookup: What value of Ki on human cloned 5-HT6 receptors (Homo sapiens, UniProt P50406) does O=S(=O)(c1ccc(Cl)cc1)c1n[nH]c2ccc(OC3CCNCC3)cc12 [Example 11] have?
Found: 11 to 25 nM

Lookup: What value of Ki on human cloned 5-HT6 receptors (Homo sapiens, UniProt P50406) does Cc1cccc(S(=O)(=O)c2n[nH]c3ccc(NC4CCNCC4)cc23)c1 [Example 51] have?
Found: 0.01 to 10 nM

Lookup: What value of Ki on human cloned 5-HT6 receptors (Homo sapiens, UniProt P50406) does O=S(=O)(c1cccc2ccccc12)c1n[nH]c2cc(NC3CCCNC3)ccc12 (stereo not shown) [Example 34, Dihydrochloride] have?
Found: > 45 nM

Lookup: What value of Ki on human cloned 5-HT6 receptors (Homo sapiens, UniProt P50406) does O=S(=O)(c1cccc2ccccc12)c1n[nH]c2ccc(OC3CCNC3)cc12 (stereo not shown) [Example 1] have?
Found: 0.01 to 10 nM

Lookup: What value of Ki on human cloned 5-HT6 receptors (Homo sapiens, UniProt P50406) does O=S(=O)(c1cccc2ccccc12)c1n[nH]c2ccc(NC3CCCNC3)cc12 (stereo not shown) [Example 32, Dihydrochloride] have?
Found: 0.01 to 10 nM

Lookup: What value of Ki on human cloned 5-HT6 receptors (Homo sapiens, UniProt P50406) does O=S(=O)(c1cccc(F)c1)c1n[nH]c2ccc(OC3CCNCC3)cc12 [Example 8] have?
Found: 11 to 25 nM

Lookup: What value of Ki on human cloned 5-HT6 receptors (Homo sapiens, UniProt P50406) does O=S(=O)(c1cccc2ccccc12)c1n[nH]c2cc(NCC3CCNCC3)ccc12 [Example 35, Dihydrochloride] have?
Found: 36 to 45 nM

Lookup: What value of Ki on human cloned 5-HT6 receptors (Homo sapiens, UniProt P50406) does O=S(=O)(c1cccc2ccccc12)c1n[nH]c2c(NCC3CCNCC3)cccc12 [Example 38, Dihydrochloride] have?
Found: 11 to 25 nM

Lookup: What value of Ki on human cloned 5-HT6 receptors (Homo sapiens, UniProt P50406) does O=S(=O)(c1cccc2ccccc12)c1n[nH]c2cc(NC3CCNCC3)ccc12 [Example 33, Dihydrochloride] have?
Found: > 45 nM

Lookup: What value of Ki on human cloned 5-HT6 receptors (Homo sapiens, UniProt P50406) does Cc1cccc(S(=O)(=O)c2n[nH]c3ccc(OC4CCNCC4)cc23)c1 [Example 12] have?
Found: 0.01 to 10 nM

Lookup: What value of Ki on human cloned 5-HT6 receptors (Homo sapiens, UniProt P50406) does CCCCN1CCC(Oc2ccc3[nH]nc(S(=O)(=O)c4cccc5ccccc45)c3c2)C1 (stereo not shown) [Example 2, Hydrochloride] have?
Found: 0.01 to 10 nM

Lookup: What value of Ki on human cloned 5-HT6 receptors (Homo sapiens, UniProt P50406) does O=S(=O)(c1cccc2ccccc12)c1n[nH]c2c(NC3CCCNC3)cccc12 (stereo not shown) [Example 37, Dihydrochloride] have?
Found: > 45 nM

Lookup: What value of Ki on human cloned 5-HT6 receptors (Homo sapiens, UniProt P50406) does CCCN1CCC(Oc2ccc3[nH]nc(S(=O)(=O)c4cccc5ccccc45)c3c2)C1 (stereo not shown) [Example 3, Hydrochloride] have?
Found: 0.01 to 10 nM

Lookup: What value of Ki on human cloned 5-HT6 receptors (Homo sapiens, UniProt P50406) does CC(C)c1ccc(S(=O)(=O)c2n[nH]c3ccc(NC4CCNCC4)cc23)cc1 [Example 47] have?
Found: 0.01 to 10 nM
